Record form. Attribute: IC50. Fill in for each entry.
# Test system: HepG2
# Protocol summary: Antiproliferative activity against human HepG2 cells assessed as reduction in cell growth after 72 hrs by MTT assay
# Format: functional, cell-based
# Condition context: HepG2, 72 h
Entry rule: numbers only, all in µM.

Supply reported IC50 belonging to this compound: `C[C@@]12CCC[C@](O)(c3ccc(C#N)cc3)[C@@H]1CC1=C(C2)C(=O)C=CC1=O`
19.4

Given the compound `C[C@@]12CCC[C@@H](C(=O)O)[C@@H]1CC1=C(C2)C(=O)C=CC1=O` , write its reported IC50.
27.8

Give the reported IC50 for this compound. `C[C@@]12CCC[C@@H](CO)[C@@H]1CC1=C(C2)C(=O)C=CC1=O`
71.7

Find the measured IC50 of `C[C@@]12CCCC(=O)[C@@H]1CC1=C(C2)C(=O)C=CC1=O` and report it.
62.6

----------
# System: MCF7
# Protocol summary: Antiproliferative activity against human MCF7 cells assessed as reduction in cell growth after 72 hrs by MTT assay
# Format: functional, cell-based
# Condition context: MCF7, 72 h
Answer each item with its documented pIC50.
Scale: pIC50 equals -log10([C]), with [C] in mol/L.

Input `C[C@@]12CCC[C@@H](CO)[C@@H]1CC1=C(C2)C(=O)C=CC1=O` , output reported pIC50.
4.36

Give the reported pIC50 for this compound. C=C1C(=O)O[C@H]2[C@H]1CCC(C)=C1CC[C@@](C)(O)[C@@H]12 [MICHELIOLIDE]
4.63

Retrieve pIC50 measured for `C[C@@]12CCC[C@@H](C(=O)O)[C@@H]1CC1=C(C2)C(=O)C=CC1=O` and print it.
4.36

State its pIC50 for this compound: `C[C@@]12CCCC(=O)[C@@H]1CC1=C(C2)C(=O)C=CC1=O`
4.51

Please indicate pIC50 recorded for `C=CC(=O)O[C@@H]1CCC[C@@]2(C)CC3=C(C[C@@H]12)C(=O)C=CC3=O`
4.79

Could you please provide reported pIC50 for `C[C@@]12CCC[C@](O)(c3ccccc3)[C@@H]1CC1=C(C2)C(=O)C=CC1=O` ? Thanks!
4.62

Supply reported pIC50 belonging to this compound: `C[C@@]12CCC[C@](O)(c3ccc(C#N)cc3)[C@@H]1CC1=C(C2)C(=O)C=CC1=O`
4.55

Quote pIC50 reported for `C[C@@]12CCC[C@@H](O)[C@@H]1CC1=C(C2)C(=O)C=CC1=O` please.
4.81

Item `Cc1ccc([C@@]2(O)CCC[C@@]3(C)CC4=C(C[C@H]32)C(=O)C=CC4=O)cc1` : provide pIC50
4.43

Could you please provide reported pIC50 for `C[C@@]12CCC[C@](O)(c3ccccn3)[C@@H]1CC1=C(C2)C(=O)C=CC1=O` ? Thanks!
4.54

----------
# System: HepG2
# Protocol summary: Antiproliferative activity against human HepG2 cells assessed as reduction in cell growth after 72 hrs by MTT assay
# Format: functional, cell-based
# Condition context: HepG2, 72 h
Answer each item with its documented pIC50.
Just the number, please; pIC50 means minus log10 of the concentration in mol/L.

With HepG2 as the test system, provide measured pIC50 for this compound: `CCc1ccc([C@@]2(O)CCC[C@@]3(C)CC4=C(C[C@H]32)C(=O)C=CC4=O)cc1`
4.33

For HepG2, give the measured pIC50 of the entry `C=CC(=O)O[C@@H]1CCC[C@@]2(C)CC3=C(C[C@@H]12)C(=O)C=CC3=O`
4.22

Recall the reported pIC50 of C=C1C(=O)O[C@H]2[C@H]1CCC(C)=C1CC[C@@](C)(O)[C@@H]12 [MICHELIOLIDE] when tested on HepG2.
4.96

Report value only: pIC50, HepG2, `C[C@@]12CCC[C@](O)(c3ccc(C(F)(F)F)cc3)[C@@H]1CC1=C(C2)C(=O)C=CC1=O`
4.16

// fetch pIC50; item: `C[C@@]12CCC[C@](O)(c3ccccc3)[C@@H]1CC1=C(C2)C(=O)C=CC1=O` ; system: HepG2
4.47

Give pIC50 for this entry on HepG2: `C[C@@]12CCC[C@@H](O)[C@@H]1CC1=C(C2)C(=O)C=CC1=O`
4.44

----------
# System: MCF7
# Protocol summary: Antiproliferative activity against human MCF7 cells assessed as reduction in cell growth after 72 hrs by MTT assay
# Assay type: functional, cell-based
# Condition context: MCF7, 72 h
pIC50: −log10 of the molar value.
Exercise: for every item that follows, state its recorded pIC50.

For the molecule `C[C@@]12CCC[C@](O)(c3ccoc3)[C@@H]1CC1=C(C2)C(=O)C=CC1=O` , give its reported pIC50.
< 4.00

Determine its reported pIC50: `C[C@H]1CO[C@H]2C3=C(C(=O)C=CC3=O)[C@@H]3OC(=O)[C@H]4CC[C@@H]5[C@H]1CC[C@@]52[C@@H]43`
< 4.00

Supply measured pIC50 of `C=CC(=O)O[C@@H]1C2=C(C[C@]3(C)CCCC(=O)[C@H]13)C(=O)C=CC2=O` in your reply.
< 4.00

----------
# Test system: HepG2
# Protocol summary: Antiproliferative activity against human HepG2 cells assessed as reduction in cell growth after 72 hrs by MTT assay
# Format: functional, cell-based
# Condition context: HepG2, 72 h
Reported metric: IC50

Indicate the recorded IC50 value for this compound: `Cc1ccc([C@@]2(O)CCC[C@@]3(C)CC4=C(C[C@H]32)C(=O)C=CC4=O)cc1`
> 100 µM

Fill in IC50 for record `COc1ccc([C@@]2(O)CCC[C@@]3(C)CC4=C(C[C@H]32)C(=O)C=CC4=O)cc1`
> 100 µM

Output IC50 of `C=C1CCC[C@@]2(C)CC3=C(C[C@@H]12)C(=O)C=CC3=O`
> 100 µM
